- SYSTEM: T1, human insulin receptor isoform B with C-terminal C9 tag (human, UniProt P06213 28-1382)
- T1 construct: membranes of stably transfected HEK293 cells; also called hIR-B; human IR-B
- TEST PROTOCOL: 125I-insulin competition SPA, hIR-B membranes, 0.1% HSA
QUANTITY: Ki (nM)
Respond with the bare value in nM.

Past entries and their recorded results:
INS Analog 12 (other, single-chain insulin B-L2-A-L1-VHH fusion; also called Ex. 12) FVSQHLCGSHLVEALHLVCGERGFHYTPKTGGGGGGGIVEQCCHSICSLYQLENYCGPGPAPGPAPGPAPGPAPGPAPGPAPGPAPGPAEVQLLESGGGLVQPGGSLRLSCAASGRYIDETAVAWFRQAPGKEREFVAGIGGGVDITYYADSVKGRFTISRDNSKNTLYLQMNSLRPEDTAVYYCAARPGRPLITSKVADLYPYWGQGTLVTVSSPP
62.1
INS Analog 26 (other, single-chain insulin B-L2-A-L1-VHH fusion; also called Ex. 26) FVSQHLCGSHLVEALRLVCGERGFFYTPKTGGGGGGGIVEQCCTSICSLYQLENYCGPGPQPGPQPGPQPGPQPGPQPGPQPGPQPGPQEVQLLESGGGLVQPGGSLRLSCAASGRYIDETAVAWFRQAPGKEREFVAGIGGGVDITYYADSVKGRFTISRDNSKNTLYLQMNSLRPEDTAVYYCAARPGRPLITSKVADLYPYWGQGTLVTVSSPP
105
INS Analog 13 (other, single-chain insulin B-L2-A-L1-VHH fusion; also called Ex. 13) FVSQHLCGSHLVEALHLVCGERGFHYTPKTGGGGGGGIVEQCCHSICSLEQLENYCGPGPAPGPAPGPAPGPAPGPAPGPAPGPAPGPAEVQLLESGGGLVQPGGSLRLSCAASGRYIDETAVAWFRQAPGKEREFVAGIGGGVDITYYADSVKGRFTISRDNSKNTLYLQMNSLRPEDTAVYYCAARPGRPLITSKVADLYPYWGQGTLVTVSSPP
89

Input line: Could you please provide reported Ki for INS Analog 14 (other, single-chain insulin B-L2-A-L1-VHH fusion; also called Ex. 14) FVSQHLCGSHLVEALRLVCGERGFFYTPKTGGGGGGGIVEQCCTSICSLYQLENYCGPGPAPGPAPGPAPGPAPGPAPGPAPGPAPGPAEVQLLESGGGLVQPGGSLRLSCAASGRYIDETAVAWFRQAPGKEREFVAGIGGGVDITYYADSVKGRFTISRDNSKNTLYLQMNSLRPEDTAVYYCAARPGRPLITSKVADLYPYWGQGTLVTVSSPP ? Thanks!
Output line: 447

Input line: Could you please provide reported Ki for INS Analog 7 (other, single-chain insulin B-L2-A-L1-VHH fusion; also called Ex. 7) FVSQHLCGSHLVEALYLVCGERGFFYTPKTGGGGGGGIVEQCCTSICSLYQLENYCGPGPAPGPAPGPAPGPAPGPAPGPAPGPAPGPAEVQLLESGGGLVQPGGSLRLSCAASGRYIDETAVAWFRQAPGKEREFVAGIGGGVDITYYADSVKGRFTISRDNSKNTLYLQMNSLRPEDTAVYYCAARPGRPLITSKVADLYPYWGQGTLVTVSSPP ? Thanks!
Output line: 47.1
